Entries annotated with measured viability 1.3 µM
- Test system: TZM-bl cells
- Format: cell-based
- assayConditions: CellTiter-Glo, peptide 1.3 µM, mean of n = 3 replicates
// return just the number, without any unit appended

Consider the following illustrative entries.
RLRLTLC [CN13] :: 120.4
QCKIKIQINM [CK2] :: 100.8
CKFKQFFNMWQ [CK13] :: 108
CEIEIQINMWQ [TM143] :: 116.4
CRFRFQF [CN10] :: 90.72
CKIKIQI [MG3b] :: 105.2
KIKIQINM [JGB2] :: 112
QCKIKQIINMWQ [EF-C (Münch Stock)] :: 94.89

Lab note: next substance to report on.
So what's the measured viability 1.3 µM for this one? CKFKFQFNMWQ [BL2]
95.99

----------
- Type: physicochemical
- assayConditions: ThT-active if fluorescence at least twice the control
Entries annotated with measured ThT Cat. / ThT-Fluorescence (categorical)

Consider the following illustrative entries.
KAKAQANMWQ :: 0 (ThT-inactive (N-Fold <2))
RFWFWFW :: 1 (ThT. Cat is 1, if Rel. ThT >2)
KFKFQFF :: 1 (ThT. Cat is 1, if Rel. ThT >2)

So what's the measured ThT Cat. / ThT-Fluorescence (categorical) for this one? `CKAKAQA`
0 (ThT-inactive (N-Fold <2))

So what's the measured ThT Cat. / ThT-Fluorescence (categorical) for this one? `KIKIKIKIYYYY`
0 (ThT-inactive (N-Fold <2))

So what's the measured ThT Cat. / ThT-Fluorescence (categorical) for this one? `KLKLTLT`
1 (ThT. Cat is 1, if Rel. ThT >2)

So what's the measured ThT Cat. / ThT-Fluorescence (categorical) for this one? `QCKIKQIINM`
1 (ThT. Cat is 1, if Rel. ThT >2)

So what's the measured ThT Cat. / ThT-Fluorescence (categorical) for this one? `RINFWFW`
1 (ThT. Cat is 1, if Rel. ThT >2)

So what's the measured ThT Cat. / ThT-Fluorescence (categorical) for this one? `NMWQKVGTPL`
1 (ThT. Cat is 1, if Rel. ThT >2)

So what's the measured ThT Cat. / ThT-Fluorescence (categorical) for this one? GAITIG-NH2 [reference compound]
0 (ThT-inactive (N-Fold <2))

----------
Entries annotated with measured Log10 Infection Rel EF-C
- Test system: HIV-1 infection of TZM-bl cells
- testProtocol: HIV-1 infectivity enhancement assay, β-galactosidase luminescence
- Assay type: cell-based
- assayConditions: log10 of infection relative to EF-C, Figure 7B
// return just the number, without any unit appended

Consider the following illustrative entries.
GAITIG-NH2 [reference compound] :: -1.35
IKFLSVN [reference compound] :: -1.16
LANWMCLAKW [reference compound] :: -0.4

So what's the measured Log10 Infection Rel EF-C for this one? IIKIIK [reference compound]
-1.1

So what's the measured Log10 Infection Rel EF-C for this one? MKVIFLKDVKG [reference compound]
-0.93

So what's the measured Log10 Infection Rel EF-C for this one? VLYVGSKT [reference compound]
-1.24

So what's the measured Log10 Infection Rel EF-C for this one? NKGAII [reference compound]
-1.2

----------
- testProtocol: Turbidity, derived count rate of scattered light
- Format: physicochemical
- assayConditions: turbidity, Log10 of derived count rate of scattered light; Figure 3A source data
attributeMeasured: Log10 Count Rate
// return just the number, without any unit appended

QCKFKFQFNMWQ :: 3.082
QCKAKAQA :: 3.12
CKIKQIINMWQ :: 3.92
CSISIQINM :: 3.517
CKIKQIIRGD :: 3.544
CKFKFQFNMWQ :: 2.154
FKFDKFKFDK :: 1.6545
RGDKIKIQINM :: 1.7574
FDPFDPFDP :: 2.412
KVKVKVQV :: 1.975

So what's the measured Log10 Count Rate for this one? `KLKLQLL`
1.861

So what's the measured Log10 Count Rate for this one? `RGDKIKIQI`
2.474

So what's the measured Log10 Count Rate for this one? `QCKFKFQF`
3.426

So what's the measured Log10 Count Rate for this one? `HLHLPLL`
2.301

So what's the measured Log10 Count Rate for this one? `KLKQLL`
2.505

So what's the measured Log10 Count Rate for this one? `QCKAKAQANM`
2.31

So what's the measured Log10 Count Rate for this one? `KFKFQFNM`
2.12

So what's the measured Log10 Count Rate for this one? `KIKIQINMWWQ`
3.59

So what's the measured Log10 Count Rate for this one? QCKIKQIINMWQ [reference compound]
3.415

So what's the measured Log10 Count Rate for this one? `KVKVQVVV`
2.213

----------
- Assay type: physicochemical
- assayConditions: ThT fluorescence category; 1 if Rel. ThT >2
- Method: 4 µL of 1 mg/mL peptide fibrils solution is added to a 20 µL, 50 µM ThT–solution in PBS. The mixture is incubated for 15 min at RT to allow binding of ThT dye with β–sheet rich structures. […] Fluorescence spectra were recorded on an Infinite® M1000 PRO microplate reader (Tecan) at λem = 488 nm upon excitation at λex = 440 nm with 10 nm bandwidths and multiple reads per well (3×3). […] Furthermore, fluorescence microscopy was conducted by staining 1 µL preformed fibrils (1 mg/mL) with 9 µL ThT (50 µM). […]
attributeMeasured: ThT Cat.

Consider the following illustrative entries.
CEFEFQFNMWQ :: 1 (ThT. Cat is 1, if Rel. ThT >2)
RGDCKIKIQINM :: 0 (ThT-inactive (N-Fold <2))
MKIKIQINMWQ :: 1 (ThT. Cat is 1, if Rel. ThT >2)
RGDKIKIQI :: 1 (ThT. Cat is 1, if Rel. ThT >2)
CEFEFQF :: 0 (ThT-inactive (N-Fold <2))
KFKFKFQF :: 1 (ThT. Cat is 1, if Rel. ThT >2)

So what's the measured ThT Cat. for this one? `KAKAQA`
0 (ThT-inactive (N-Fold <2))

So what's the measured ThT Cat. for this one? `HHHHKIKIQINMYYYY`
1 (ThT. Cat is 1, if Rel. ThT >2)

So what's the measured ThT Cat. for this one? `KIKIKIKI`
1 (ThT. Cat is 1, if Rel. ThT >2)

So what's the measured ThT Cat. for this one? `RGDKIKIQINMC`
0 (ThT-inactive (N-Fold <2))

----------
- testProtocol: Zeta-potential measurement
- Assay type: physicochemical
attributeMeasured: Zeta Pot. / mV (mV)
# number only, unit mV dropped from output

RGDKIKIQINM [MG8a / CN17] :: 16.43
KIKIQIC [TM112 / CN11] :: 19.93
KIKIQIW [TM69] :: 12.5
RIRIQIC [PS07] :: 16
KIKQII [msis21] :: -12.67
HHHHKAKAKAKAWWWW [TM8] :: 17.4
KAKAKAQA [TG15] :: -9.01
KIKIQIII [TG7] :: 19.8

So what's the measured Zeta Pot. / mV for this one? KLKLQLL [TG4 / (KM2)]
-4.93

So what's the measured Zeta Pot. / mV for this one? HHHHKIKIKIKIYYYY [TM6]
13.2

So what's the measured Zeta Pot. / mV for this one? KVKVQVVV [TG8]
0.147

So what's the measured Zeta Pot. / mV for this one? KFKQFFINMWQ [VH14]
7.99

So what's the measured Zeta Pot. / mV for this one? HHHHKIKIQINMYYYY [TM16]
7.807

So what's the measured Zeta Pot. / mV for this one? KYKYQY [KB1]
-4.2

So what's the measured Zeta Pot. / mV for this one? KLKQLL [KM27 / psis14]
-8.46

So what's the measured Zeta Pot. / mV for this one? RGECKFKFQF [CN16]
23.97

So what's the measured Zeta Pot. / mV for this one? QCKFKQFFNMWQ [CK10]
9.587

----------
- testProtocol: Turbidity, derived count rate of scattered light
- Format: physicochemical
- assayConditions: derived count rate of scattered light (turbidity)
Entries annotated with measured Count Rate

Consider the following illustrative entries.
KIKIQINMWQRGD :: 2783
KIKIQINAWQ :: 1494
KYKYQY :: 31.53

So what's the measured Count Rate for this one? `CKWKWQW`
7511

So what's the measured Count Rate for this one? `QCKAKAQANMWQ`
427.5

So what's the measured Count Rate for this one? `HHHHKAKAKAKAYYYY`
240.9
